B1: ZNF449 (parent)
chain: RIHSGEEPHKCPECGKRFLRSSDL

Variants of: B1
Experiment: protein stability index of a GFP-peptide fusion (GPS, HEK-293T) (PSI 1-6); higher = more stable;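 further: lentivirally expressed fusions sorted by FACS into six bins by GFP to DsRed ratio, PSI derived from sequencing read proportions per bin multiplied by bin number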
Details: c terminus: a fixed tail appended
Attribute: protein stability index

Alteration: E13F
protein stability index: 3.77

Alteration: E6M
protein stability index: 2.57

Alteration: K16P
protein stability index: 3.82

Alteration: R17L
protein stability index: 3.08

Alteration: G5T
protein stability index: 4.24

Alteration: C14F
protein stability index: 3.47

Alteration: R20A
protein stability index: 4.09

Alteration: R17K
protein stability index: 4.13

Alteration: K16I
protein stability index: 2.93
